Item-by-item account of OD at 560 nm
target system: T1, human ANGPTL8 (human, UniProt Q6UXH0 22-198)
T1 construct: Biotinylated in the ELISA assays; also called hANGPTL8; free ANGPTL8
T1 sequence: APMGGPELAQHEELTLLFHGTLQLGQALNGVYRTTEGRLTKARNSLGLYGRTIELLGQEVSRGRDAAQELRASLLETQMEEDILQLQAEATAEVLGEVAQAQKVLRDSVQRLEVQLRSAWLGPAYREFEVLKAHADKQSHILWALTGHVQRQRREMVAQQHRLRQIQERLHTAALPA
protocol details: ELISA; Ab captured by anti-human Fc; biotinylated antigen at 0.046 nM
Give just the numeric value; OD 560 nm need not be written.

As a guide, the following entries are already answered.
| binder | scale unit | OD at 560 nm |
| --- | --- | --- |
| Ab with LC variant having a D33A mutation (SEQ ID NO:22) and a HC of SEQ ID NO:6 (antibody, human IgG4 S228P, kappa, F234A L235A, V domains shown, also called D33A Variant Ab; D33A Ab) VH: QVTLKESGPTLVKPTQTLTLTCTFSGFSLSISGVGVGWIRQPPGKALEWLALIYRNDDKRYSPSLKSRLTITKDTSKNQVVLTLTNMDPVDTATYYCARTYSSGWYGNWFDPWGQGTLVTVSS VL: DIVMTQTPLSLPVTPGEPASISCRSSQSLLDSADGNTYLDWYLQKPGQSPQLLIYMLSYRASGVPDRFSGSGSGTDFTLKISRVEAEDVGIYYCMQRIEFPLTFGGGTKVEIKR | OD 560 nm | 0.074 |
| Ab with LC variant having a D31S mutation (SEQ ID NO:21) and a HC of SEQ ID NO:6 (antibody, human IgG4 S228P, kappa, F234A L235A, V domains shown, also called D31S Variant Ab; D31S Ab) VH: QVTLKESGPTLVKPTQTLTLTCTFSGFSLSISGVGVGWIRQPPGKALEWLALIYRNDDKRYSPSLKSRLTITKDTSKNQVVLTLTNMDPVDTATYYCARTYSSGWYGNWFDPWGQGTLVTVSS VL: DIVMTQTPLSLPVTPGEPASISCRSSQSLLSSDDGNTYLDWYLQKPGQSPQLLIYMLSYRASGVPDRFSGSGSGTDFTLKISRVEAEDVGIYYCMQRIEFPLTFGGGTKVEIKR | OD 560 nm | 0.096 |
| anti-ANGPTL3/8 complex Ab having a LC of SEQ ID NO:5 and a HC of SEQ ID NO:6 (antibody, human IgG4 S228P, kappa, F234A L235A, V domains shown, In the ELISA assays tested as IgG from CHO supernatants; also called the Ab) VH: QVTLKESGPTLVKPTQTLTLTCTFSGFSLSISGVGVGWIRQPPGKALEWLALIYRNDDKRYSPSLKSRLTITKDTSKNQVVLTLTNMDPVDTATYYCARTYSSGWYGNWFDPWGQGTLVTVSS VL: DIVMTQTPLSLPVTPGEPASISCRSSQSLLDSDDGNTYLDWYLQKPGQSPQLLIYMLSYRASGVPDRFSGSGSGTDFTLKISRVEAEDVGIYYCMQRIEFPLTFGGGTKVEIKR | OD 560 nm | 0.051 |

Consider the record given below.
Answer with the recorded OD at 560 nm for the binder listed here: Ab with LC variant having a E99Q mutation (SEQ ID NO:25) and a HC of SEQ ID NO:6 (antibody, human IgG4 S228P, kappa, F234A L235A, V domains shown, also called E99Q Variant Ab; E99Q Ab) VH: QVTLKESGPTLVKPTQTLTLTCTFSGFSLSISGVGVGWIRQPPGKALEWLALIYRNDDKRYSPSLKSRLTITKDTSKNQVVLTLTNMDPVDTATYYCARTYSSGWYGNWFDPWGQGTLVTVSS VL: DIVMTQTPLSLPVTPGEPASISCRSSQSLLDSDDGNTYLDWYLQKPGQSPQLLIYMLSYRASGVPDRFSGSGSGTDFTLKISRVEAEDVGIYYCMQRIQFPLTFGGGTKVEIKR 0.096
